Assign pIC50 to each entry below.
Please report pIC50 as the negative decimal logarithm of the molar concentration, giving only the number.

Entry C=CCCCCCCCCNc1ccc2c(c1)C(=O)/C(=C/c1ccc(O)c(OC)c1)C2 under Pancreatic triacylglycerol lipase (Sus scrofa, UniProt P00591) had pIC50 of 4.08

Entry O=C1/C(=C/c2ccccc2Br)Cc2ccc(O)cc21 under Pancreatic triacylglycerol lipase (Sus scrofa, UniProt P00591) had pIC50 of 4.54

Entry COc1ccc(/C=C2\Cc3ccc(O)cc3C2=O)c(OC)c1 under Pancreatic triacylglycerol lipase (Sus scrofa, UniProt P00591) had pIC50 of 4.61

Entry O=C1/C(=C/c2ccc(Br)cc2)Cc2ccc(O)cc21 under Pancreatic triacylglycerol lipase (Sus scrofa, UniProt P00591) had pIC50 of 4.12

Entry C=CCCCCN(CCCCC=C)c1ccc2c(c1)C(=O)/C(=C/c1ccc(O)c(OC)c1)C2 under Pancreatic triacylglycerol lipase (Sus scrofa, UniProt P00591) had pIC50 of 5.68

Entry O=C(/C=C/c1ccccc1)c1ccccc1 [CHALCONE] under Pancreatic triacylglycerol lipase (Sus scrofa, UniProt P00591) had pIC50 of 4.07
